target: CYP2C9 (Homo sapiens, UniProt P11712); experiment: Inhibition of recombinant human CYP2C9 expressed in baculovirus infected insect cell microsomes at 1 uM relative to control; format: ADME
Sequence (P11712 whole entry): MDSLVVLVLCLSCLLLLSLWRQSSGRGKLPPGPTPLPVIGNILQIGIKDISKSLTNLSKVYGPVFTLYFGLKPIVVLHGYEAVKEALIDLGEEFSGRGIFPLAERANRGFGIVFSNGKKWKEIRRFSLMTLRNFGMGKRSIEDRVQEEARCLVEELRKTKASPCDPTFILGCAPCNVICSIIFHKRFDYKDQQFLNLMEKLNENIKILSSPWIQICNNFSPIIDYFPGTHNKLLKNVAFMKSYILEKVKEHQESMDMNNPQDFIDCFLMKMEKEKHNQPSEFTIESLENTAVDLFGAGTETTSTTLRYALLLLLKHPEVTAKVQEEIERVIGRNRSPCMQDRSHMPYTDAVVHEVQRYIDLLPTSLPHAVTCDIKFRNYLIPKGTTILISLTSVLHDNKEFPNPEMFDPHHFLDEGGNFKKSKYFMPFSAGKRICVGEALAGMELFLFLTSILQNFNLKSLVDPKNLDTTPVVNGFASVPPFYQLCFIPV
MEASURED_METRIC: inhibition at 1 µM (%)
Answers are plain numbers, in %.

Form: molecule = `COc1c(Cl)cc(-c2ccc(C(=O)c3c(F)ccc(O)c3F)s2)cc1Cl` ; inhibition at 1 µM = 0

---

molecular target: PXR (NR1I2) (Homo sapiens, UniProt O75469); assay: Agonist activity at recombinant human PXR at 3.16 uM by co-factor recruitment assay relative to control; format: ADME; details: read-out: Activity
Sequence (O75469 whole entry): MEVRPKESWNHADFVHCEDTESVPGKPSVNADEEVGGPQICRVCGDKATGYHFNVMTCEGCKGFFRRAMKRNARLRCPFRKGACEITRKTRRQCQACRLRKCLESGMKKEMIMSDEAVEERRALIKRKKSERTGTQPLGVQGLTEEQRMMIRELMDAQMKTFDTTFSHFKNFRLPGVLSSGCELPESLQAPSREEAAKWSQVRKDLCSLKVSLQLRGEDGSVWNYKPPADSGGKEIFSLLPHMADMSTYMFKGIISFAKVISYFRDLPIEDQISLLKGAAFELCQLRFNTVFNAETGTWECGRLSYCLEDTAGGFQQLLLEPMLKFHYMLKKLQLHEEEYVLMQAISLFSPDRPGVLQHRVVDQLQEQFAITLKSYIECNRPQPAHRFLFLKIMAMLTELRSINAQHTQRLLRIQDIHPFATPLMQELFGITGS
MEASURED_METRIC: activity at 3.16 µM

Form: compound = `COc1c(Cl)cc(-c2ccc(C(=O)c3c(F)ccc(O)c3F)s2)cc1Cl` ; activity at 3.16 µM = < 5%
